tested on: SK-LU-1; assay: relative viability (nuclei count vs DMSO), 5 days (fraction); higher = more cells survive; details: first compound 0.3162 µM

{"columns": ["Compound", "relative viability"],
 "data": [
  ["CCN(CC)CCCCNc1ncc2cc(-c3cc(OC)cc(OC)c3)c(NC(=O)NC(C)(C)C)nc2n1 + COc1cccc2cc(-c3nc([C@H]4CC[C@H](C(=O)O)CC4)n4ncnc(N)c34)[nH]c12 [OSI-027] (partner 0.5 µM)", 0.341],
  ["O=c1cc(N2CCOCC2)oc2c(-c3cccc4c3sc3ccccc34)cccc12 + COc1cc2c(Oc3ccc(NC(=O)C4(C(=O)Nc5ccc(F)cc5)CC4)cc3F)ccnc2cc1OCCCN1CCOCC1 [Foretinib] (partner 0.25 µM)", 0.834],
  ["CCN(CC)CCCCNc1ncc2cc(-c3cc(OC)cc(OC)c3)c(NC(=O)NC(C)(C)C)nc2n1 + CC(C)C[C@H](NC(=O)[C@H](Cc1ccccc1)NC(=O)c1cnccn1)B(O)O [Bortezomib] (partner 0.002 µM)", 1.75],
  ["CCN(CC)CCCCNc1ncc2cc(-c3cc(OC)cc(OC)c3)c(NC(=O)NC(C)(C)C)nc2n1 + C[C@@H](Oc1cc(-c2cnn(C3CCNCC3)c2)cnc1N)c1c(Cl)ccc(F)c1Cl [Crizotinib] (partner 1 µM)", 1],
  ["O=c1cc(N2CCOCC2)oc2c(-c3cccc4c3sc3ccccc34)cccc12 + O=C(c1cc(Cc2n[nH]c(=O)c3ccccc23)ccc1F)N1CCN(C(=O)C2CC2)CC1 [Olaparib] (partner 8 µM)", 0.52],
  ["O=c1cc(N2CCOCC2)oc2c(-c3cccc4c3sc3ccccc34)cccc12 + N=C(N)NC(=N)NCCc1ccccc1 [Phenformin] (partner 250 µM)", 0.509],
  ["O=c1cc(N2CCOCC2)oc2c(-c3cccc4c3sc3ccccc34)cccc12 + Cc1nc(Nc2ncc(C(=O)Nc3c(C)cccc3Cl)s2)cc(N2CCN(CCO)CC2)n1 [Dasatinib] (partner 0.075 µM)", 0.195],
  ["O=c1cc(N2CCOCC2)oc2c(-c3cccc4c3sc3ccccc34)cccc12 + CC(=O)Nc1cccc(-n2c(=O)n(C3CC3)c(=O)c3c(Nc4ccc(I)cc4F)n(C)c(=O)c(C)c32)c1 [Trametinib] (partner 0.02 µM)", 0.443],
  ["CCN(CC)CCCCNc1ncc2cc(-c3cc(OC)cc(OC)c3)c(NC(=O)NC(C)(C)C)nc2n1 + Cc1cc(Nc2cc(N3CCN(C)CC3)nc(Sc3ccc(NC(=O)C4CC4)cc3)n2)n[nH]1 [Tozasertib] (partner 0.1 µM)", 0.363]
]}

###

Below, each entry is listed alongside its reported relative viability.
tested on: NCI-H520; test: relative viability (nuclei count vs DMSO), 5 days (fraction); higher = more cells survive; conditions: first compound 2.53 µM

{"columns": ["Compound", "relative viability"],
 "data": [
  ["O=c1cc(-c2cccc3c2Sc2ccccc2S3)oc(N2CCOCC2)c1 + C[C@]1(O)C[C@@H](c2nc(-c3ccc4ccc(-c5ccccc5)nc4c3)c3c(N)nccn32)C1 [Linsitinib] (partner 1 µM)", 0.972],
  ["O=c1cc(-c2cccc3c2Sc2ccccc2S3)oc(N2CCOCC2)c1 + COc1cccc2cc(-c3nc([C@H]4CC[C@H](C(=O)O)CC4)n4ncnc(N)c34)[nH]c12 [OSI-027] (partner 0.5 µM)", 0.216],
  ["O=c1cc(-c2cccc3c2Sc2ccccc2S3)oc(N2CCOCC2)c1 + N=C(N)NC(=N)NCCc1ccccc1 [Phenformin] (partner 250 µM)", 0.372],
  ["COc1nc(C)cnc1NS(=O)(=O)c1cccnc1-c1ccc(-c2nnco2)cc1 [Zibotentan] + CC(C)C[C@H](NC(=O)[C@H](Cc1ccccc1)NC(=O)c1cnccn1)B(O)O [Bortezomib] (partner 0.002 µM)", 0.821],
  ["COc1nc(C)cnc1NS(=O)(=O)c1cccnc1-c1ccc(-c2nnco2)cc1 [Zibotentan] + COc1cc2c(Oc3ccc(NC(=O)C4(C(=O)Nc5ccc(F)cc5)CC4)cc3F)ccnc2cc1OCCCN1CCOCC1 [Foretinib] (partner 0.25 µM)", 0.742]
]}

###

test system: COR-L 105; experiment: relative viability (nuclei count vs DMSO), 5 days (fraction); higher = more cells survive; settings: first compound 1 µM
Below, each entry is listed alongside its reported relative viability.

{"columns": ["Molecule", "relative viability"],
 "data": [
  ["O=c1cc(N2CCOCC2)oc2c(-c3cccc4c3sc3ccccc34)cccc12 + O=C(c1cc(Cc2n[nH]c(=O)c3ccccc23)ccc1F)N1CCN(C(=O)C2CC2)CC1 [Olaparib] (partner 8 µM)", 0.575],
  ["O=c1cc(N2CCOCC2)oc2c(-c3cccc4c3sc3ccccc34)cccc12 + COc1cccc2cc(-c3nc([C@H]4CC[C@H](C(=O)O)CC4)n4ncnc(N)c34)[nH]c12 [OSI-027] (partner 0.5 µM)", 0.553],
  ["O=c1cc(N2CCOCC2)oc2c(-c3cccc4c3sc3ccccc34)cccc12 + CC(=O)c1c(C)c2cnc(Nc3ccc(N4CCNCC4)cn3)nc2n(C2CCCC2)c1=O [Palbociclib] (partner 0.5 µM)", 0.386],
  ["CCN(CC)CCCCNc1ncc2cc(-c3cc(OC)cc(OC)c3)c(NC(=O)NC(C)(C)C)nc2n1 + CS(=O)(=O)N1CCN(Cc2cc3nc(-c4cccc5[nH]ncc45)nc(N4CCOCC4)c3s2)CC1 [Pictilisib] (partner 1 µM)", 0.392],
  ["O=c1cc(N2CCOCC2)oc2c(-c3cccc4c3sc3ccccc34)cccc12 + O=C(CCCCCCC(=O)Nc1ccccc1)NO [Vorinostat] (partner 1 µM)", 0.918],
  ["CCN(CC)CCCCNc1ncc2cc(-c3cc(OC)cc(OC)c3)c(NC(=O)NC(C)(C)C)nc2n1 + CS(=O)(=O)CCNCc1ccc(-c2ccc3ncnc(Nc4ccc(OCc5cccc(F)c5)c(Cl)c4)c3c2)o1 [Lapatinib] (partner 2 µM)", 0.387],
  ["CCN(CC)CCCCNc1ncc2cc(-c3cc(OC)cc(OC)c3)c(NC(=O)NC(C)(C)C)nc2n1 + COc1cc2c(Oc3ccc(NC(=O)C4(C(=O)Nc5ccc(F)cc5)CC4)cc3F)ccnc2cc1OCCCN1CCOCC1 [Foretinib] (partner 0.25 µM)", 1.15],
  ["O=c1cc(N2CCOCC2)oc2c(-c3cccc4c3sc3ccccc34)cccc12 + C[C@]1(O)C[C@@H](c2nc(-c3ccc4ccc(-c5ccccc5)nc4c3)c3c(N)nccn32)C1 [Linsitinib] (partner 1 µM)", 0.895],
  ["O=c1cc(N2CCOCC2)oc2c(-c3cccc4c3sc3ccccc34)cccc12 + CC1(C)CCC(c2ccc(Cl)cc2)=C(CN2CCN(c3ccc(C(=O)NS(=O)(=O)c4ccc(N[C@H](CCN5CCOCC5)CSc5ccccc5)c(S(=O)(=O)C(F)(F)F)c4)cc3)CC2)C1 [Navitoclax] (partner 0.5 µM)", 0.676],
  ["CCN(CC)CCCCNc1ncc2cc(-c3cc(OC)cc(OC)c3)c(NC(=O)NC(C)(C)C)nc2n1 + CC(C)C[C@H](NC(=O)[C@H](Cc1ccccc1)NC(=O)c1cnccn1)B(O)O [Bortezomib] (partner 0.002 µM)", 0.732]
]}

###

system: NCI-H2170; experiment: relative viability (nuclei count vs DMSO), 5 days (fraction); higher = more cells survive; settings: first compound 0.3162 µM
Hi! Just check whether relative viability is below 0.5. Below gives yes, equal or above gives no.

{"columns": ["Compound", "Classification"],
 "data": [
  ["O=c1cc(N2CCOCC2)oc2c(-c3cccc4c3sc3ccccc34)cccc12 + CCNC(=O)c1noc(-c2cc(C(C)C)c(O)cc2O)c1-c1ccc(CN2CCOCC2)cc1 [Luminespib] (partner 0.01 µM)", "no"],
  ["CCN(CC)CCCCNc1ncc2cc(-c3cc(OC)cc(OC)c3)c(NC(=O)NC(C)(C)C)nc2n1 + Nc1ncn([C@H]2C[C@H](O)[C@@H](CO)O2)c(=O)n1 [Decitabine] (partner 2 µM)", "yes"],
  ["CCN(CC)CCCCNc1ncc2cc(-c3cc(OC)cc(OC)c3)c(NC(=O)NC(C)(C)C)nc2n1 + CS(=O)(=O)N1CCN(Cc2cc3nc(-c4cccc5[nH]ncc45)nc(N4CCOCC4)c3s2)CC1 [Pictilisib] (partner 1 µM)", "yes"],
  ["O=c1cc(N2CCOCC2)oc2c(-c3cccc4c3sc3ccccc34)cccc12 + Cc1cc(Nc2cc(N3CCN(C)CC3)nc(Sc3ccc(NC(=O)C4CC4)cc3)n2)n[nH]1 [Tozasertib] (partner 0.1 µM)", "no"],
  ["O=c1cc(N2CCOCC2)oc2c(-c3cccc4c3sc3ccccc34)cccc12 + NC(=O)Nc1cc(-c2cccc(F)c2)sc1C(=O)N[C@H]1CCCNC1 [AZD7762] (partner 0.2 µM)", "no"],
  ["O=c1cc(N2CCOCC2)oc2c(-c3cccc4c3sc3ccccc34)cccc12 + O=C(CCCCCCC(=O)Nc1ccccc1)NO [Vorinostat] (partner 1 µM)", "no"]
]}
